Target: T1, human GPC3 (Glypican-3) (human, UniProt P51654 25-580)
T1 construct: whole, on cells; the cell line is named under assay or readout
Test: FACS on Huh-7 cells
Please note: EC50 exactly at 0.7 nM is rule not met. Only values below 0.7 nM get rule met.

Completed entries (count: 5):
binder	class
Y035 antibody (CARSGEN Therapeutics), humanized (antibody, V domains shown) VH: EVQLVQSGAEVKKPGASVKVSCKASGYTHSDYEMHWVRQAPGQGLEWMGAIHPGSGDTAYNQRFKGRVTITADKSTSTAYMELSSLRSEDTAVYYCARFYSYAYWGQGTLVTVSA VL: DIVMTQTPLSLPVTPGEPASISCRSSQSLVHSNGNTYLQWYLQKPGQSPQLLIYKVSNRFSGVPDRFSGSGSGTDFTLKISRVEAEDVGVYYCSQSIYVPYTFGQGTKLEIKR	rule not met
Hu 52H5D3B8-8 (antibody, human IgG1, kappa, V domains shown, also called humanized GPC3 antibody Hu 52H5D3B8-8) VH: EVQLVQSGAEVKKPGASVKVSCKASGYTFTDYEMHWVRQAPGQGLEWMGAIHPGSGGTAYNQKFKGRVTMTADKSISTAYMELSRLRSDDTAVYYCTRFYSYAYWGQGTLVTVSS VL: DVVMTQTPLSLSVTPGQPASISCRSSQSLVHSNGNTYLQWYLQKPGQSPQLLIYKVSNRFSGVPDRFSGSGSGTDFTLKISRVEAEDVGVYFCSQSIHVPYTFGGGTKVEIKR	rule met
Hu 52H5D3B8-7/8 CDRs with Y035 FRs (antibody, V domains shown) VH: EVQLVQSGAEVKKPGASVKVSCKASGYTHSDYEMHWVRQAPGQGLEWMGAIHPGSGGTAYNQKFKGRVTITADKSTSTAYMELSSLRSEDTAVYYCARFYSYAYWGQGTLVTVSA VL: DIVMTQTPLSLPVTPGEPASISCRSSQSLVHSNGNTYLQWYLQKPGQSPQLLIYKVSNRFSGVPDRFSGSGSGTDFTLKISRVEAEDVGVYYCSQSIHVPYTFGQGTKLEIKR	rule not met
GC33 antibody (Chugai Pharmaceutical) (antibody, V domains shown, Control antibody, prepared as in US 7919086 B2; Whole antibody; Detected with anti-human IgG) VH: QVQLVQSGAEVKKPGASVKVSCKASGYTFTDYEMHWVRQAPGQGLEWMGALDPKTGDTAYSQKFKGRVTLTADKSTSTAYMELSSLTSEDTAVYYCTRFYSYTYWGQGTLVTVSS VL: DVVMTQSPLSLPVTPGEPASISCRSSQSLVHSNGNTYLHWYLQKPGQSPQLLIYKVSNRFSGVPDRFSGSGSGTDFTLKISRVEAEDVGVYYCSQNTHVPPTFGQGTKLEIK	rule not met
Y035 CDRs with Hu 52H5D3B8-7 FRs (antibody, V domains shown, built here from the pieces; detected with anti-human IgG) VH: EVQLVQSGAEVKKPGASVKVSCKASGYTFTDYEMHWVRQAPGQGLEWMGAIHPGSGDTAYNQRFKGRVTMTADKSISTAYMELSRLRSDDTAVYYCTRFYSYAYWGQGTLVTVSS VL: DVVMTQTPLSLSVTPGQPASISCRSSQSLVHSNGNTYLQWYLQKPGQSPQLLIYKVSNRFSGVPDRFSGSGSGTDFTLKISRVEAEDVGVYYCSQSIYVPYTFGGGTKVEIK	rule met

Please examine the following record next.
**Q:** Below 0.7 nM on EC50? Entry Hu 52H5D3B8-7 (antibody, human IgG1, kappa, V domains shown, also called humanized GPC3 antibody Hu 52H5D3B8-7) VH: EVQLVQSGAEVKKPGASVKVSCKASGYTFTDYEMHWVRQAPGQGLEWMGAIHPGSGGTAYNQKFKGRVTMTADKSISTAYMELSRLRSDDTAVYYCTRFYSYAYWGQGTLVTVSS VL: DVVMTQTPLSLSVTPGQPASISCRSSQSLVHSNGNTYLQWYLQKPGQSPQLLIYKVSNRFSGVPDRFSGSGSGTDFTLKISRVEAEDVGVYYCSQSIHVPYTFGGGTKVEIKR
**A:** rule met
